target: MAP3K11 (human) (UniProt Q16584); test: radiometric filter-binding kinase assay; conditions: compound 1.0 µM
Sequence (Q16584 whole entry, looked up): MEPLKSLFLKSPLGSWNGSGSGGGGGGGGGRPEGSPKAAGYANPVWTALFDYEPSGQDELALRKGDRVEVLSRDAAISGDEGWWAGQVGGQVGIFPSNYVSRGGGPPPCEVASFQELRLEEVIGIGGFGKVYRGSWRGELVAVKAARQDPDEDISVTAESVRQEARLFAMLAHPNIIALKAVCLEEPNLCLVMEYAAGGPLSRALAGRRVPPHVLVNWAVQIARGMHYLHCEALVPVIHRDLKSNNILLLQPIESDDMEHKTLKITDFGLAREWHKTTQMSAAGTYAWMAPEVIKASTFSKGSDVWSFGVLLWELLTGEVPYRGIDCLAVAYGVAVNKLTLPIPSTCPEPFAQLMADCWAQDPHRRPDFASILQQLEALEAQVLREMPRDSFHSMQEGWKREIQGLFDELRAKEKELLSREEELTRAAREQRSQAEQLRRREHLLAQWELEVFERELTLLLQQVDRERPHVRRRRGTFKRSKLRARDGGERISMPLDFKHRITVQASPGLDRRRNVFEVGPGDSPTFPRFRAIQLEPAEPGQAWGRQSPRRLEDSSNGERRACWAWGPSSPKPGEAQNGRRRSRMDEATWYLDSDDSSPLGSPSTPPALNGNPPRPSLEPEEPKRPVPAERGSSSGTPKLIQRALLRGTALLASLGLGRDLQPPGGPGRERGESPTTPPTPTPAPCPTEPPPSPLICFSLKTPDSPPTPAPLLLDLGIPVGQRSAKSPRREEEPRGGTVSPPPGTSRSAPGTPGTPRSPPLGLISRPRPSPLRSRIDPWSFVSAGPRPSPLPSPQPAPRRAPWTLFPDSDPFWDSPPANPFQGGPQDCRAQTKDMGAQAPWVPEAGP
ASSAY READOUT: residual activity (%)

Consider the worked cases shown below.
compound=C=CC(=O)N1CCC[C@@H](n2nc(-c3ccc(Oc4ccccc4)cc3)c3c(N)ncnc32)C1 target_under_test="MAP3K11 (human) (UniProt Q16584)" assay_readout="residual activity" endpoint_value=65
compound=NC(=O)c1c(NC(=O)C2CC2)sc2c1CCCC2 target_under_test="MAP3K11 (human) (UniProt Q16584)" assay_readout="residual activity" endpoint_value=89
compound=O=C(NOC[C@H](O)CO)c1ccc(F)c(F)c1Nc1ccc(I)cc1Cl target_under_test="MAP3K11 (human) (UniProt Q16584)" assay_readout="residual activity" endpoint_value=83
compound=NC(=O)c1cc(-c2ccnc(NC3CCCCC3)c2)nc(N2CCNCC2)c1 target_under_test="MAP3K11 (human) (UniProt Q16584)" assay_readout="residual activity" endpoint_value=86
compound=CCCCCc1ccc(/C=C/[C@H](O)[C@@H](CO)NC)cc1 target_under_test="MAP3K11 (human) (UniProt Q16584)" assay_readout="residual activity" endpoint_value=106

(I) CNc1nc(-c2ccc3c(N)n[nH]c3c2)cc(N2C[C@@H](C(=O)NC3CCCCC3)CC[C@H]2C)n1
(II) CCNc1nc(Nc2cc(F)c(C(=O)N3CCOCC3)cc2OC)ncc1C(F)(F)F
(III) CNC(=O)C1[C@H]2O[C@@](C)([C@@H]1N)n1c3ccccc3c3c4c(c5c6ccccc6n2c5c31)C(=O)NC4 (stereo not given in full)
(IV) COc1ccc(-n2ncc3cnc(Nc4cc(OC)c(OC)c(OCCCN5CCN(C)CC5)c4)nc32)cc1
(V) O=C(O)c1ccc(-c2c[nH]c3ncc(-c4ccccc4)cc23)cc1C1CCCC1
Q: Provide the items ranked by increasing residual activity. Record the ranking as a list of labels in the requested order.
Ans: III, IV, II, V, I

(P) Cc1ccc(=O)n(-c2ccccc2)c1
(Q) O=c1c(O)c(-c2ccc(O)c(O)c2)oc2cc(O)c(O)c(O)c12
(R) Oc1ccc2ccccc2c1SSc1c(O)ccc2ccccc12
Q: // ranking: key=residual activity, reverse=True Ranked list of labels, please, in the requested order.
Ans: P, Q, R

(A) O=C(Nc1ccccc1-c1cn2c(CN3CCNCC3)csc2n1)c1cnc2ccccc2n1
(B) COc1cc2ncn(-c3cc(OCc4ccccc4S(C)(=O)=O)c(C#N)s3)c2cc1OC
Q: I'm curious, which of these has a smaller residual activity number: A or B ? Indicate which entry you chose by stating its label.
Ans: B

----------
target: DDR2 (human); assay: radiometric filter-binding kinase assay; conditions: compound 1.0 µM
ASSAY READOUT: residual activity (%)

Look over these answered cases.
compound=COc1cc(C(=O)N2CCOCC2)c(F)cc1Nc1ncc(C(F)(F)F)c(NC2CC2)n1 endpoint_value=105
compound=NCC(=O)Nc1ccc(-n2nc(C(F)(F)F)cc2-c2ccc3c(ccc4ccccc43)c2)cc1 endpoint_value=92
compound=CNc1nc(-c2ccc3c(N)n[nH]c3c2)cc(N2C[C@@H](C(=O)NC3CCCCC3)CC[C@H]2C)n1 endpoint_value=107
compound=CCn1c(-c2nonc2N)nc2cncc(CNC3CCNCC3)c21 endpoint_value=97

(1) Cc1ccc(-c2ccc3c(ccc4sc5c(c43)NC[C@@H](C)NC5=O)n2)cn1
(2) COc1ccc(N(C(=O)Nc2c(C)cccc2C)c2cc(Nc3ccc(N4CCN(C)CC4)cc3)ncn2)c(OC)c1
(3) CNC(=O)C1[C@H]2O[C@@](C)([C@@H]1N)n1c3ccccc3c3c4c(c5c6ccccc6n2c5c31)C(=O)NC4 (stereo partly drawn)
Q: Order the records so the highest residual activity appears first and the lowest last. Answer by listing the labels in the order asked for.
Ans: 1, 2, 3
(1: 101%, 2: 6%, 3: 3%)
